Reference source for all entries: patent US5668143A

Exercise: state measured pIC50 for each of the molecules provided.
Tested on: interleukin-1 beta (IL-1β) release (production) by human peripheral blood monocyte-derived macrophages
Experiment: Endotoxin-Induced Interleukin-1 Beta Release by Human Macrophages
Assay type: cell-based
Settings: Macrophage, endotoxin 20 ng/mL (Salmonella typhimurium, Re-mutant), compound 1 h before stimulation, supernatant at 24 h, ELISA
Method: Endotoxin-Induced Interleukin-1 Beta Release by Human Macrophages The objective of this test is to determine the inhibitory concentrations for the test compounds against endotoxin-induced interleukin-1 beta (IL-1β) release (production) by human peripheral blood monocyte-derived macrophages. […] The IL-1β concentration in the culture supernatant is calculated by a standard curve generated from a series of known concentrations. […]
Give bare numbers, as −log10 of the molar value.

Prompt line: // query pIC50 value for entry CCOC(=O)c1cc(=NS(=O)(=O)c2ccccc2)c2c(Cl)cc(Cl)cc2[nH]1
Response line: 5.70

Prompt line: // query pIC50 value for entry COC(=O)c1cc(=NS(=O)(=O)c2ccccc2)c2c(Cl)cc(Cl)cc2[nH]1
Response line: 5.22

Prompt line: // query pIC50 value for entry COC(=O)c1cc(=NS(=O)(=O)c2ccccc2)c2ccccc2o1
Response line: 5.52

Prompt line: // query pIC50 value for entry CCCCOC(=O)c1cc(=NS(=O)(=O)c2ccccc2)c2c(Cl)cc(Cl)cc2[nH]1
Response line: 5.52

Note: attention shifts to another entry.
Prompt line: // query pIC50 value for entry CNC(=O)c1cc(=NS(=O)(=O)c2ccccc2)c2c(Cl)cc(Cl)cc2[nH]1
Response line: 5.52

* * *

experiment: Interleukin-1-Beta-Induced Tumor Necrosis Factor Alpha Release by Human Macrophages; type: cell-based; conditions: Macrophage; TNF-α release; recombinant human IL-1β 20 ng/mL; compound 1 h before stimulation; supernatant at 24 h; ELISA
MEASURED PROPERTY: IC50 (nM)
Numbers only, in nM.

Use these answered entries as a reference point.
Prompt line: // query IC50 value for entry CCOC(=O)c1cc(=NS(=O)(=O)c2ccccc2)c2c(Cl)cc(Cl)cc2[nH]1
Response line: 3000

Prompt line: // query IC50 value for entry CCCCOC(=O)c1cc(=NS(=O)(=O)c2ccccc2)c2c(Cl)cc(Cl)cc2[nH]1
Response line: 5000

Prompt line: // query IC50 value for entry COC(=O)c1cc(=NS(=O)(=O)c2ccccc2)c2ccccc2o1
Response line: 2000

Prompt line: // query IC50 value for entry COC(=O)c1cc(=NS(=O)(=O)c2ccccc2)c2c(Cl)cc(Cl)cc2[nH]1
Response line: 3000

Note: attention shifts to another entry.
Prompt line: // query IC50 value for entry CNC(=O)c1cc(=NS(=O)(=O)c2ccccc2)c2c(Cl)cc(Cl)cc2[nH]1
Response line: 4000
